B1: CLPTM1 (parent)
chain: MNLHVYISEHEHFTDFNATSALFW

variants of: B1; assay: protein stability index of a GFP-peptide fusion (GPS, HEK-293T) (PSI 1-6); higher = more stable; details: c terminus: a fixed tail appended;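 note: lentivirally expressed fusions sorted by FACS into six bins by GFP to DsRed ratio, PSI derived from sequencing read proportions per bin multiplied by bin number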
Here the recorded protein stability index is given for each entry.
Answer with a bare number; do not write a unit.

# count of solved cases: 10
D15C; 2.43
Y6C; 2.52
F23H; 3.78
T14M; 4.02
E9K; 2.52
Y6D; 2.1
S20Q; 2.59
H4Y; 4.32
V5M; 3.04
N17V; 2.75

Req: Look up protein stability index: N17T
Resp: 3.19

Req: // repeat for F16Y and report
Resp: 2.26

Req: Next: N2T
Resp: 2.58

Req: Another variant to look at: Y6T
Resp: 4.82
